# System: pAKT in T47D (PI3Kα H1047R mutant) cells
# EXPERIMENT_NOTES: Inhibition of pAKT (alphaLISA Surefire Ultra AKT 1/2/3 pS473) in T47D cells
# Type: cell-based
# CONDITION_DETAILS: Homo sapiens; T47D (PI3Kα H1047R mutant) cells, 24 hr compound incubation, alphaLISA pS473; read-out: T47D (H1047R) pAKT 24 hr (IC50)
OUTCOME_MEASURE: IC50
Entry format: amount then unit.

INSERT INTO measurements (compound, observed) VALUES
  ('Cc1cc([C@@H](C)Nc2ccc(Cl)nc2C(=O)O)c2nc(N3CC4(CC(F)C4)C3)c(C#N)nc2c1', '2.99 nM'),
  ('Cc1cc([C@@H](C)Nc2ccc(Cl)nc2C(=O)O)c2nc(N3CC4(CCOC4)C3)c(C#N)nc2c1', '1.1 nM'),
  ('Cc1cc([C@@H](C)Nc2ccc(Cl)nc2C(=O)O)c2nc(N3C[C@@H](F)C[C@H]3C)c(C#N)nc2c1 [Example 246A]', '0.69 nM'),
  ('Cc1cc([C@@H](C)Nc2ccccc2C(=O)O)c2nc(N3CCOCC3)c(C#N)nc2c1', '14 nM');

// map Cc1cc([C@@H](C)Nc2ccccc2C(=O)O)c2nc(NC[C@]3(C)CC3(F)F)c(C#N)nc2c1 (single isomer, unassigned) [Example 75A] to recorded IC50 (system: pAKT in T47D (PI3Kα H1047R mutant) cells)
52 nM

Enter reported IC50 observed with pAKT in T47D (PI3Kα H1047R mutant) cells for `Cc1cc([C@@H](C)Nc2ccc(Cl)nc2C(=O)O)c2nc(N3CCc4cc(C#N)ccc4C3)c(C#N)nc2c1`
2 nM

Please tell me: IC50 of `Cc1cc([C@@H](C)Nc2ccc(Cl)nc2C(=O)O)c2nc(N3CC4(CCCO4)C3)c(C#N)nc2c1` , system pAKT in T47D (PI3Kα H1047R mutant) cells?
2.7 nM

Identify the measured IC50 of Cc1cc([C@@H](C)Nc2ccc(Cl)nc2C(=O)O)c2nc(N3CCC[C@@H]([C@@H](C)O)C3)c(C#N)nc2c1 [Example 261D] for pAKT in T47D (PI3Kα H1047R mutant) cells.
1.2 nM

What value of IC50 on pAKT in T47D (PI3Kα H1047R mutant) cells does Cc1cc([C@@H](C)Nc2ccc(Cl)nc2C(=O)O)c2nc(N3C[C@@H]4CO[C@@H](C4)C3)c(C#N)nc2c1 (single isomer, unassigned) [Example 243A] have?
0.34 nM
